- Test system: MS2 coat protein
- PROTOCOL DESCRIPTION: apparent Kd, MS2 coat protein; higher = weaker binding; RNA-MaP array
- TEST SETTINGS: ligand present: tryptophan; designed as: OFF switch for tryptophan
Readings of apparent Kd for the listed sequences

{"PRIMARY SEQUENCE": "AGUCCUCUGUACCCUGAUGCCCUCACUUUACGAGGACCGGUACGGCCGCCACUCGAAUCCCAACAUGAGGAUCACCCAUGUCGAC", "apparent Kd / nM": 39.7}
{"PRIMARY SEQUENCE": "GCCGCCGGUGCUUCAUUCCCUGAGCGACGGCGAGGACCGGUACGGCCGCCACUCGGCUCGGUACAUGAGGAUCACCCAUGUCUUU", "apparent Kd / nM": 54.5}
{"PRIMARY SEQUENCE": "GGUGUUACGUCGGCCGCCACUAUACUACAUGAGGAUCACCCAUGUCAUCCCUUCAAUUGGUAGCCUAGGACCGGGACAGAAUUCG", "apparent Kd / nM": 47.2}
{"PRIMARY SEQUENCE": "GGUUCCUCAACGGCCGCCACUUACUGGAUUAGUGGACCUACUUGCAACAUGAGGAUCACCCAUGUAAGGACCGGGUUGCUCCCAA", "apparent Kd / nM": 79.2}
